subject_of_test: HLA-A*02:02
test_method_notes: IEDB peptide-MHC binding, purified MHC/competitive/radioactivity; bounds were set here for any values at or beyond the usual limits of such assays
test_context: source organism: Vaccinia virus WR
measured_property: IC50 (nM)
Numbers only here, please. The scale is nM.

# example entries with known answers
primary_sequence=IVSRSSRGV number=264
primary_sequence=DTGKKELAL number=116
primary_sequence=FLRPVLKAM number=1380
primary_sequence=ELLEMKYAL number=952
primary_sequence=KVYNGIFVDT number=111
primary_sequence=NVISKIYTL number=147
primary_sequence=IASKINNNRI number=732
primary_sequence=SQIFNIISYI number=62

Answer with the recorded IC50 of SLVSKHWELT only.
409

Answer with the recorded IC50 of MVDVSMMSM only.
559

Answer with the recorded IC50 of KVYLSTFNM only.
482

Answer with the recorded IC50 of YAGTIKESL only.
2070

Answer with the recorded IC50 of IIAVFDSKL only.
44

Answer with the recorded IC50 of QLMYDIINSV only.
1.9

Answer with the recorded IC50 of AAAKTPVIV only.
1900

Answer with the recorded IC50 of TLVPVLEKKV only.
112

Answer with the recorded IC50 of ILKDPRIASI only.
3160

Answer with the recorded IC50 of LMELPVKTDI only.
1510

Answer with the recorded IC50 of LTSVDIETAI only.
509

Answer with the recorded IC50 of NTIAVITETI only.
50

Answer with the recorded IC50 of MLPESDLDKV only.
3.2

###

subject_of_test: HLA-A*02:06
test_method_notes: IEDB peptide-MHC binding, purified MHC/competitive/radioactivity; bounds were set here for any values at or beyond the usual limits of such assays
test_context: source organism: SARS-CoV1
pIC50: −log10 of the molar value.
Categorize each record by its pIC50 using class A (below 8), class B (8 to below 9), class C (9 or more)

Study these solved cases before continuing.
primary_sequence=FLLVTLAIL label="class C"
primary_sequence=FLAFVVFLL label="class B"
primary_sequence=ALYKGFQFI label="class B"

Hi there! Could you help me figure out the category for NLAPHLLLIV please?
class A

Hi there! Could you help me figure out the category for FLCLFLLPSL please?
class C

Hi there! Could you help me figure out the category for LLSAGIFGA please?
class A

Hi there! Could you help me figure out the category for LMYKGLPWNV please?
class A

###

subject_of_test: HLA-A*02:01
test_method_notes: IEDB peptide-MHC binding, purified MHC/competitive/radioactivity; bounds were set here for any values at or beyond the usual limits of such assays
test_context: source organism: Vaccinia virus WR
pIC50: −log10 of the molar value.
// label = Criterion met if pIC50 is not less than 6, otherwise Criterion not met

Study these solved cases before continuing.
primary_sequence=MLVNRMQRI subject_of_test=HLA-A*02:01 label="Criterion met"
primary_sequence=YLTAIQDFI subject_of_test=HLA-A*02:01 label="Criterion met"
primary_sequence=DMLLNVQTL subject_of_test=HLA-A*02:01 label="Criterion not met"
primary_sequence=GLCIRISMV subject_of_test=HLA-A*02:01 label="Criterion met"
primary_sequence=TVMNNLSEL subject_of_test=HLA-A*02:01 label="Criterion met"

Could you please find out whether TLVKSGLTEV has pIC50 that meets 6 or exceeds it?
Criterion met

Could you please find out whether ILSNKLLYAA has pIC50 that meets 6 or exceeds it?
Criterion met

Could you please find out whether SIDIETESV has pIC50 that meets 6 or exceeds it?
Criterion met

Could you please find out whether LIAFSSGTV has pIC50 that meets 6 or exceeds it?
Criterion not met

Could you please find out whether RMQRISGSNI has pIC50 that meets 6 or exceeds it?
Criterion not met

Could you please find out whether SMKGENVFI has pIC50 that meets 6 or exceeds it?
Criterion met

###

subject_of_test: HLA-A*02:02
test_method_notes: IEDB peptide-MHC binding, cellular MHC/competitive/fluorescence; bounds were set here for any values at or beyond the usual limits of such assays
test_context: source organism: Vaccinia virus WR
Reported pIC50 is given for each of the following sequences.
Keep it numeric: pIC50 is minus log10 of the concentration in mol/L.

# example entries with known answers
primary_sequence=TVDFTDCRTI number=4.50
primary_sequence=STIANSNII number=5.21
primary_sequence=VLEKKVCAI number=4.84
primary_sequence=NTKSDNIINI number=4.51
primary_sequence=CVKYLLDNDI number=4.50
primary_sequence=KVEKYLPEVI number=4.92

Answer with the recorded pIC50 of LTGNNTITT only.
5.24

Answer with the recorded pIC50 of NVDVGCLLT only.
5.01

Answer with the recorded pIC50 of NITHTNITTL only.
4.98

Answer with the recorded pIC50 of MISTYPGNT only.
5.26

Answer with the recorded pIC50 of GIIITVGML only.
5.06

Answer with the recorded pIC50 of VTLNRIKIA only.
4.88

Answer with the recorded pIC50 of GLESIEQNLT only.
5.15

Answer with the recorded pIC50 of ELTSNCTRTT only.
4.84

Answer with the recorded pIC50 of VVKDKIKLPT only.
4.43

Answer with the recorded pIC50 of MAAAKTPVIV only.
5.22

Answer with the recorded pIC50 of VTKRDESSI only.
5.09

Answer with the recorded pIC50 of FTDCRTIDA only.
4.96

Answer with the recorded pIC50 of PIPYSRVNHA only.
4.93

Answer with the recorded pIC50 of SILNNPVDT only.
4.33

Answer with the recorded pIC50 of KTRLFRSPQV only.
5.03

Answer with the recorded pIC50 of TAIRAGYSI only.
4.84

Answer with the recorded pIC50 of ELPVKTDIV only.
4.64

Answer with the recorded pIC50 of FIDRGSIKI only.
5.01

Answer with the recorded pIC50 of SVKYYGRST only.
5.17

Answer with the recorded pIC50 of DVNSVQFSI only.
4.98

Answer with the recorded pIC50 of LALWDSNFFT only.
4.96

###

subject_of_test: HLA-A*02:06
test_method_notes: IEDB peptide-MHC binding, purified MHC/competitive/radioactivity; bounds were set here for any values at or beyond the usual limits of such assays
test_context: source organism: Vaccinia virus WR
Reported pIC50 is given for each of the following sequences.
Keep it numeric: pIC50 is minus log10 of the concentration in mol/L.

# example entries with known answers
primary_sequence=IVYGRSNAI number=7.52
primary_sequence=AVLSEYETMV number=7.62
primary_sequence=AMIHKTYIDV number=6.69
primary_sequence=TLVPVLEKKV number=6.30

For the next question, use this sequence.
Answer with the recorded pIC50 of TLNTLITLIL only.
6.08

###

subject_of_test: HLA-A*02:06
test_method_notes: IEDB peptide-MHC binding, cellular MHC/competitive/fluorescence; bounds were set here for any values at or beyond the usual limits of such assays
test_context: source organism: Mammarenavirus lassaense
Reported pIC50 is given for each of the following sequences.
Keep it numeric: pIC50 is minus log10 of the concentration in mol/L.

primary_sequence=YCSNIKLQVV measured_property=pIC50 number=5.15

For the next question, use this sequence.
Answer with the recorded pIC50 of LNQAVNNLV only.
4.87

###

Reported pIC50 is given for each of the following sequences.
subject_of_test: HLA-A*68:01
test_method_notes: IEDB peptide-MHC binding, cellular MHC/competitive/fluorescence; bounds were set here for any values at or beyond the usual limits of such assays
test_context: source organism: Hepatitis B virus
pIC50: −log10 of the molar value.

primary_sequence=WMMWYWGPSL result="≤ 4.15"
primary_sequence=GLSRYVARV result="≤ 4.15"
primary_sequence=ILSPFLPLL result="≤ 4.15"
primary_sequence=LLWFHISCL result="≤ 4.15"
primary_sequence=FLLAQFTSA result="≤ 4.15"
primary_sequence=FLAPLPIHTA result=4.45
primary_sequence=FLLSLGIHL result=4.81
primary_sequence=LLDYQGMLPV result="≤ 4.15"
primary_sequence=ILCWGELMTL result=4.36
primary_sequence=FLCKQYLNL result="≤ 4.15"

Answer with the recorded pIC50 of SILSPFLPL only.
≤ 4.15

Answer with the recorded pIC50 of KVGAGAFGL only.
≤ 4.15

Answer with the recorded pIC50 of SLYSILSPFL only.
4.19

Answer with the recorded pIC50 of CLIFLLVLL only.
4.46

Answer with the recorded pIC50 of YQGMLPVCPL only.
≤ 4.15

Answer with the recorded pIC50 of NLSWLSLDV only.
≤ 4.15

Answer with the recorded pIC50 of HLYSHPIIL only.
≤ 4.15

Answer with the recorded pIC50 of LVPFVQWFV only.
≤ 4.15

###

Reported IC50 is given for each of the following sequences.
subject_of_test: HLA-A*30:02
test_method_notes: IEDB peptide-MHC binding, purified MHC/competitive/radioactivity; bounds were set here for any values at or beyond the usual limits of such assays
test_context: source organism: Vaccinia virus WR
Numbers only here, please. The scale is nM.

# example entries with known answers
primary_sequence=RQVSVKLLI number=519
primary_sequence=AQQFCQYLI number=748
primary_sequence=SQIFNIISYI number=671

For the next question, use this sequence.
# return IC50 for NQGNILMDSI , test system: HLA-A*30:02
3950

These data points were gathered from the Immune Epitope Database (IEDB).
